Origin of the recorded values: patent US20220002268A1

Measured chromatographic logP, listed per entry.
- protocol.summary: log P by HPLC on reversed phase, neutral range
- Format: physicochemical
- experimental.context: reversed phase HPLC column, LC-UV, 0.001 molar ammonium acetate solution in water and acetonitrile
test.readout: chromatographic logP

>  <compound>
N#Cc1ccc(-n2ncnc2CCN)nc1

>  <test.readout>
chromatographic logP

>  <result.value>
0.87

$$$$
>  <compound>
COCC(NC(=O)c1cc(Cl)cc(C(F)(F)F)c1)C(N)=O (stereo not shown)

>  <test.readout>
chromatographic logP

>  <result.value>
1.94

$$$$
>  <compound>
NCCc1ncnn1-c1ncccn1

>  <test.readout>
chromatographic logP

>  <result.value>
0.01

$$$$
>  <compound>
c1cnc(-n2ncnc2CNCC2CC2)nc1

>  <test.readout>
chromatographic logP

>  <result.value>
0.83

$$$$
